target: UniProt:Q04609; assay: Inhibition of recombinant human glutamate carboxypeptidase 2 (44 to 750 residues) overexpressed in Drosophila Schneider S2 cells using [3H]-NAAG/NAAG as substrate preincubated for 15 mins followed by substrate addition measured after 20 mins by liquid scintillation counting method
Sequence (Q04609 whole entry, the tested form may be a part): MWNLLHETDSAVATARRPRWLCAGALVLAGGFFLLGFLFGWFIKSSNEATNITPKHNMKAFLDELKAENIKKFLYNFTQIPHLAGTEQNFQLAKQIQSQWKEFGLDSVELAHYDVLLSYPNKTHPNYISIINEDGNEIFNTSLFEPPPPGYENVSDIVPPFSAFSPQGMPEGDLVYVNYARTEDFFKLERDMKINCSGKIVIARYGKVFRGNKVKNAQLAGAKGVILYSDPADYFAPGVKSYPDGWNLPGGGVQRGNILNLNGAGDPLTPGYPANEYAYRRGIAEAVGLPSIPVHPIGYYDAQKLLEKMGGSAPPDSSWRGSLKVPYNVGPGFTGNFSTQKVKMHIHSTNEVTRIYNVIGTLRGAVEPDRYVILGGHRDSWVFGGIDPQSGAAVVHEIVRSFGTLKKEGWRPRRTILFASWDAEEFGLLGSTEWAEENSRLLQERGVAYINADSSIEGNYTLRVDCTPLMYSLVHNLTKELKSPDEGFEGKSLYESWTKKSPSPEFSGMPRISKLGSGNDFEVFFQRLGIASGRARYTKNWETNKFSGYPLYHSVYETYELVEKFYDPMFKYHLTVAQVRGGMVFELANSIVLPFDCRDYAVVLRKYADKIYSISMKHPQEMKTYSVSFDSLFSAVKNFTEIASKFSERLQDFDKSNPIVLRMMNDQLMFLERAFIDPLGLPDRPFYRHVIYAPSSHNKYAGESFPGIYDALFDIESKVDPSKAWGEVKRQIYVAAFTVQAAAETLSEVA
pIC50: −log10 of the molar value.
Entries and their measured pIC50 follow.
MEASURE NAME: pIC50

In [3]: df
Out[3]:
                                   molecule  target_or_test_system  measure_name  result
0  CC(=O)Oc1ccc(CONC(=O)CCC(Cc2ccc(C(=O)OCOC(=O)OC(C)C)cc2)C(=O)O)cc1 (stereo unspecified)         UniProt:Q04609         pIC50  < 5.30
1  CC(=O)Oc1ccc(CONC(=O)CCC(Cc2ccc(C(=O)O)cc2)C(=O)O)cc1 (stereo unspecified)         UniProt:Q04609         pIC50  < 5.30
2  CCOC(=O)c1ccc(CC(CCC(=O)NOCc2ccc(OC(C)=O)cc2)C(=O)O)cc1 (stereo unspecified)         UniProt:Q04609         pIC50  < 5.30
3  CCOC(=O)c1ccc(CC(CCC(=O)NOCc2ccc(OC(C)=O)cc2)C(=O)OCC)cc1 (stereo unspecified)         UniProt:Q04609         pIC50  < 5.30
4  O=C(CCC(Cc1ccc(C(=O)O)cc1)C(=O)O)NO (stereo unspecified)         UniProt:Q04609         pIC50    7.40
5  CC(=O)ONC(=O)CCC(Cc1ccc(C(=O)O)cc1)C(=O)O (stereo unspecified)         UniProt:Q04609         pIC50  < 5.30

Every entry's value here was drawn from ChEMBL document CHEMBL4017492.
